molecular target: 5-hydroxytryptamine receptor 1A (Homo sapiens); assay: Binding affinity to 5-HT1A receptor in human HeLa cell membrane assessed as inhibition constant by Packard top-counter analysis; type: cell membranes
Sequence (P08908 whole entry): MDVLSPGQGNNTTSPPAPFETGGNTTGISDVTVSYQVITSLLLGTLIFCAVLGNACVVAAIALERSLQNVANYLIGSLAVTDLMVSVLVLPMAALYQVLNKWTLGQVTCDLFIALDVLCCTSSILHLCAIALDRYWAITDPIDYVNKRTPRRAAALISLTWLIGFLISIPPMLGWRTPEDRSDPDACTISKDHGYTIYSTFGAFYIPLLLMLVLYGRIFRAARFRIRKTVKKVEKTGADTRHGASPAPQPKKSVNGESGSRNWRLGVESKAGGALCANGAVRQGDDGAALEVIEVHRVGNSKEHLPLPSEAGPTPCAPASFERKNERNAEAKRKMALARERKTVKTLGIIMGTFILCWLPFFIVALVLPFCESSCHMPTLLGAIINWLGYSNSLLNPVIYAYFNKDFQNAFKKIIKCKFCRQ
measurement.type: Ki (nM)
Give bare numbers, in nM.

Please go through the list and note Ki for each compound.
1. COc1ccccc1N1CCN(CCN(C(=O)N2CCCCC2)c2cccc(F)n2)CC1
2. COc1ccccc1N1CCN(CCN(C(=O)N2CCCCC2)c2cccc(Br)n2)CC1

0.51
0.31

----------
molecular target: D(4) dopamine receptor (Homo sapiens, UniProt P21917); experiment: Binding affinity to D4 receptor (unknown origin) assessed as inhibition constant
Sequence (P21917 whole entry): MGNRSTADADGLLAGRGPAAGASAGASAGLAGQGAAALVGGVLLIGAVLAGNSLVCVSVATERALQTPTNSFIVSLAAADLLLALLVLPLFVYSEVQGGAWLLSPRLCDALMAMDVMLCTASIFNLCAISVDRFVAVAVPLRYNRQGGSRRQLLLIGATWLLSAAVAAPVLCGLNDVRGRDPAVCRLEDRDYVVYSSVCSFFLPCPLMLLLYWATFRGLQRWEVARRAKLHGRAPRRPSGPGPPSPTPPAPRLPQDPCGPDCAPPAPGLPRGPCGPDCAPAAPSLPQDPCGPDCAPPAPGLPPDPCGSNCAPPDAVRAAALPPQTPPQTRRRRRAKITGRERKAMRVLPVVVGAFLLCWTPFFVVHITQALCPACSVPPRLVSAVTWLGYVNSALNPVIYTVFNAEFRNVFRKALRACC
measurement.type: pKi
Give bare numbers, as −log10 of the molar value.

Identify measured pKi associated with `COc1cccc(N2CCN(CCCCn3ncc(=O)n(C)c3=O)CC2)c1`
7.66
